- Subject of test: T1, human SEMA4D, full length, on CHO-K1 cells (CHO-K1 hSEMA4D) (human, UniProt Q92854 22-862)
- T1 construct: whole, on cells; also called human SEMA4D recombinant cells
- T1 sequence (looked up): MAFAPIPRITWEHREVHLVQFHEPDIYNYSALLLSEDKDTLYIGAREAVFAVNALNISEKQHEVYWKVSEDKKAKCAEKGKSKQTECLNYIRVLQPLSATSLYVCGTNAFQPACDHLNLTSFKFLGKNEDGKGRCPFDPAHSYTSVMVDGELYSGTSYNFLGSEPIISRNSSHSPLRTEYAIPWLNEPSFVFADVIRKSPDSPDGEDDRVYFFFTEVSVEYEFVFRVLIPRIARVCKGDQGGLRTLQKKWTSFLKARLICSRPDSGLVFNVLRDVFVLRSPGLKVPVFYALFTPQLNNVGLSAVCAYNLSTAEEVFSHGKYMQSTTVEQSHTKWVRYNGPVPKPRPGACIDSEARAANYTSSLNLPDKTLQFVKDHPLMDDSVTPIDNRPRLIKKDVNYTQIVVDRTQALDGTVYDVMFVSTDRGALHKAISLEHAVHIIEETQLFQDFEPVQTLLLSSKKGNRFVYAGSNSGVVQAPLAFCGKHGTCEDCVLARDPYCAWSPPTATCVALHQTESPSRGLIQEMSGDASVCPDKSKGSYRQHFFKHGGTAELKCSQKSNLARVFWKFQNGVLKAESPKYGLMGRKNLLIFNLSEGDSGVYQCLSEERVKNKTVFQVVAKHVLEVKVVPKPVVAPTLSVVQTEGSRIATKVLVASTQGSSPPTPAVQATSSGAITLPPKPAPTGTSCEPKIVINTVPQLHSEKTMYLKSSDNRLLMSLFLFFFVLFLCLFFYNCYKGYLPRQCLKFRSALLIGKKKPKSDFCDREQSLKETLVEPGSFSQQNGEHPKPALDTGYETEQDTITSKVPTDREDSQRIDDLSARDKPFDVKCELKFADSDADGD
- Experiment notes: FACS, CHO-K1 hSEMA4D cells; Ab 13.3 nM
Recorded endpoint: MFI
Answers are plain numbers.

Binder	MFI
32C8F10 (antibody, V domains shown, Mouse monoclonal antibody purified from hybridoma supernatant on protein A) VH: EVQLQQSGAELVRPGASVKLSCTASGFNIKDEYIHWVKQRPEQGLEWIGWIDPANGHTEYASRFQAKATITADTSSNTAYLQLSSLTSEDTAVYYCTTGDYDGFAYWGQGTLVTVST VL: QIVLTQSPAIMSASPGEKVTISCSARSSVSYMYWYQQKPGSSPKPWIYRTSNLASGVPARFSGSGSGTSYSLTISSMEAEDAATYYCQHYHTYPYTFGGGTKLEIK	7830
38H2E3 (antibody, V domains shown, Mouse monoclonal antibody purified from hybridoma supernatant on protein A) VH: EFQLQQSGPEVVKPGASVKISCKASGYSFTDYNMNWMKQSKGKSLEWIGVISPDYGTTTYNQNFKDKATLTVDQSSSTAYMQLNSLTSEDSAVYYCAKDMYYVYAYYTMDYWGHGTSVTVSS VL: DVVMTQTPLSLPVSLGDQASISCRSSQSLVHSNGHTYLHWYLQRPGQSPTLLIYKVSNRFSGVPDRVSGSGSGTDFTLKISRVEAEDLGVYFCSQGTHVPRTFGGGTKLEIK	4630
37C4F7 (antibody, V domains shown, Mouse monoclonal antibody purified from hybridoma supernatant on protein A) VH: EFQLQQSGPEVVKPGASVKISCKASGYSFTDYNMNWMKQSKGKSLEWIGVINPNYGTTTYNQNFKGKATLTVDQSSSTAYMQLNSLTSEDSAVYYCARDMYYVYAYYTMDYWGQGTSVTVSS VL: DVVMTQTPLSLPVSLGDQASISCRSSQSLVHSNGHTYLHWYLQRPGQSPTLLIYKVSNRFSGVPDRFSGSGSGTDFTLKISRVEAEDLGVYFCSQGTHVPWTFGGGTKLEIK	4290

Next:
Qu. Which value of MFI has been reported for 37F11F9 (antibody, V domains shown, Mouse monoclonal antibody purified from hybridoma supernatant on protein A) VH: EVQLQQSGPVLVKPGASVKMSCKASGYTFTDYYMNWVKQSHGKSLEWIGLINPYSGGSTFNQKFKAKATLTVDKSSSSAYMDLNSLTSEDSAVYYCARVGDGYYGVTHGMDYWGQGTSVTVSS VL: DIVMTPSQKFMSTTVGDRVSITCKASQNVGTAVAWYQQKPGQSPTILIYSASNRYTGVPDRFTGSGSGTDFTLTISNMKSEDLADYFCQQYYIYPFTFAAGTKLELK in the records?
Ans. 3960
